For each of the binders below, state its EC50.
- SYSTEM_NAME: T1, human Claudin18.2 (human)
- T1 construct: also called CLDN18.2
- PROCEDURE_SUMMARY: FACS, Claudin18.2-HEK293 cells
Numbers only, in µg/mL.

BINDER	EC50 (µg/mL)
humanized 232C5E3-VL1.1 + VH1 (antibody, human IgG1, kappa, V domains shown, humanized, human IgG1/kappa constant regions) VH: QVQLVQSGAEVKKPGASVKVSCKASGYTFTSHNIHWVRQAPGQRLEWMGYIYPGNGGTNYNQKFKARVTITRDTSASTAYMELSSLRSEDTAVYYCARDYYGNSFAYWGQGTLVTVSS VL: DIVMTQSPDSLAVSLGERATMSCKSSQSLLNSGNQKNYLTWYQQKPGQPPKLLIYWASTRESGVPDRFSGSGSGTDFTLTISSLQAEDVAVYYCQNGYRFPFTFGQGTKLEIKR	0.304

# batch size: 3; output EC50 per entry
1. humanized 370E2B12C3-VH3 + VL2 (antibody, human IgG1, kappa, V domains shown, humanized, human IgG1/kappa constant regions) VH: QVQLVESGGGVVQPGRSLRLSCAASGFSLTTYGVHWVRQAPGKGLEWVAVIWAGGSTNYNSALMSRFTISRDNSKNTLYLQMNSLRAEDTAVYYCARAAYYGNGLDYWGQGTMVTVSS VL: DIVMTQSPLSLPVTPGEPASISCKSSQTLLNSGNQKNYLTWYLQKPGQSPQLLIYWASTGESGVPDRFSGSGSGTDFTLKISRVEAEDVGVYYCQNAYFYPFTFGGGTKVEIKR
2. humanized 412B6E4-VH1 + VL1.1 (antibody, human IgG1, kappa, V domains shown, humanized, human IgG1/kappa constant regions) VH: EVQLVESGGGLVQPGGSLRLSCAASGFTFSSFGVHWVRQAPGKGLEWVSYISSGSSTIYYAHSVKGRFTISRDNAKNSLYLQMNSLRAEDTAVYYCARFYYGNSFAYWGQGTLVTVSS VL: DIVMTQSPDSLAVSLGERATMSCKSSQSLLNSGNQKNYLTWYQQKPGQPPKMLIYWASTRESGVPDRFSGSGSGTDFTLTISSLQAEDVAVYYCQNAYTYPLTFGQGTKLEIKR
3. humanized 246B5F2-VH1 + VL1 (antibody, human IgG1, kappa, V domains shown, humanized, human IgG1/kappa constant regions) VH: EVQLLESGGGLVQPGGSLRLSCAASEFTFSNYAMSWVRQAPGKGLEWVSTISSGRSSTYYPDSVKGRFTISRDNSKNTLYLQMNSLRAEDTAVYYCAKLGRGNAMEYWGQGTLVTVSS VL: DIVMTQSPDSLAVSLGERATINCKSSQSLLNSGNQKNYLTWYQQKPGQPPKLLIYWASTRESGVPDRFSGSGSGTDFTLTISSLQAEDVAVYYCQNAYSYPFTFGGGTKLEIKR

RESULT:
1: 0.794; 2: 0.373; 3: 0.16
